Data origin: the CombiSolv-Exp solvation set (Vermeire and Green 2021)

Test: solvent given as SMILES
Conditions: in CO
The following molecules are shown together with reported solvation free energy, 298 K values.
Provide only the numeric value, understood in kcal/mol.

-- ask Identify solvation free energy, 298 K associated with the molecule CC(F)F
-- reply -1.91

-- ask Could you please provide reported solvation free energy, 298 K for CCC(C)C(=O)OC1CC(C)C=C2C=CC(C)C(CCC3CC(O)CC(=O)O3)C21 (stereo not drawn) ? Thanks!
-- reply -25.2

-- ask Return reported solvation free energy, 298 K. Input molecule: CCOCC
-- reply -3.26

---

Item-by-item account of solvation free energy, 298 K
Test: solvent given as SMILES
Conditions: in CCCCCCCCCC
Field: numeric (kcal/mol). Do not append units.

-- ask Return reported solvation free energy, 298 K. Input compound: FC(F)(F)F
-- reply 0.86
